Recorded values, source PubChem BioAssay (NCI).

test system: ACHN renal; assay: NCI tumour cell line growth inhibition, 48 h
MEASURED_PROPERTY: TGI

MOLECULE	ASSAY_TARGET	ASSAY_RESULT
O=C(NC(=O)c1c(F)cccc1F)Nc1cccc(Oc2ncc(Cl)cn2)c1	ACHN renal	> 100 µM
CS(=O)(=O)Nc1ccc2ccccc2c1-c1c(NS(C)(=O)=O)ccc2ccccc12	ACHN renal	> 25 µM
O=C(Nc1ccc(Cl)cc1)C1C(=O)C(=O)N(c2ccc(Cl)cc2)C1=O (stereo not given)	ACHN renal	> 100 µM
O=c1[nH]c2cc(C(F)(F)F)ccc2nc1C(F)(F)F	ACHN renal	> 100 µM
N#CCC(=O)N/N=C1/C(=O)N(c2ccc(Cl)cc2)C(=O)C(=O)C1c1nc2ccccc2s1 (stereo not given)	ACHN renal	> 100 µM
O=C1OC(CCCN2CCCCC2)(c2ccccc2)CC12CCCC2 (stereo not given)	ACHN renal	> 100 µM
O=C1COc2cc(NC(=S)Nc3ccccc3)ccc2N1	ACHN renal	> 100 µM
Nc1ncc(-c2cnn(C3CCNCC3)c2)cc1-c1nc2cc(Cl)ccc2o1	ACHN renal	3.08 µM
NC(N)=NS(=O)(=O)c1ccc(NNc2c3ccccc3nc3ccccc23)cc1	ACHN renal	23.1 µM
CN(C)/C=C/C(=CC=[N+](C)C)/C=C/N(C)C	ACHN renal	> 100 µM
O=C(Nc1cccc(O)c1)C(=O)C1C(=O)NC(=S)NC1=O	ACHN renal	> 100 µM
COc1ccc2c(c1)/C(=C\c1c(Cl)[nH]c3cc(C)c(OC)cc13)C(=O)N2	ACHN renal	17.3 µM
O=C1C=CC(=O)C2C1C1(Cl)C(Cl)=C(Cl)C2(Cl)C1(Cl)Cl (stereo not given)	ACHN renal	18.3 µM
CC(C)(C)C1CCC(=O)/C(=C/CC2CC(=O)N(c3ccccc3)C(=O)C2)C1 (stereo not given)	ACHN renal	42.9 µM
C#CC1(O)C(COP(=O)(O)OCC(COP(=O)(O)OCC2OC(n3cc(F)c(=O)[nH]c3=O)CC2O)OCCCCCCCCCCCCCCCCCC)OC(n2ccc(N)nc2=O)C1O (stereo not given)	ACHN renal	> 100 µM
S=C(N/N=C/c1ccccn1)N1CCCCC1	ACHN renal	3.44 µM
CC(=O)OCC1OC(N2C(C)=C(C(C)=O)C(c3ccc(Cl)cc3)C(C#N)=C2S)C(OC(C)=O)C(OC(C)=O)C1OC(C)=O (stereo not given)	ACHN renal	> 100 µM
COCCOC(=O)C1=C(O)c2ccccc2S(=O)(=O)N1C	ACHN renal	> 100 µM
COC(=O)C1=C(OC(=O)/C(=C/c2ccccc2)c2ccc(Cl)cc2Cl)C(C(=O)OC)[C@@]2(O)[C@@H](C(=O)OC)[C@H](C)C[C@@H]1[C@@H]2C(=O)OC (stereo not given in full)	ACHN renal	> 100 µM
COc1cc2c(cc1O)c(O)cc1c3cc(OC)c(OC)cc3c[n+](C)c21	ACHN renal	> 100 µM

----------
The reader will find reported TGI values listed item by item below.
tested on: U251 CNS; assay: NCI tumour cell line growth inhibition, 48 h

COMPOUND	OP	TGI, µM
CC1(C)OCN(c2ccc(N3CCOCC3)cc2)Cn2c1nc1ccccc12	>	100
COc1ccc(CC2COc3cc(OC)cc(OC)c3C2=O)cc1 (stereo not given)	>	100
CCN1C(=O)c2ccc3c4c(ccc(c24)C1=O)C(=O)N(CCCNCc1ccccc1OC)C3=O	=	3.32
CCCCCCCC(CC(=O)NC(CO)C(=O)NC(CO)CC(C)C)OC(=O)CC(CCCCCCC)OC(=O)CC(CCCCCCC)OC1OC(C)C(O)C(OC2OC(C)C(OC(C)=O)C(O)C2O)C1O (stereo not given)	=	14.7
CSc1c(C(=O)Nc2ccccc2)c(N)n(N)c(=O)c1C#N	>	100
O=C(c1ccccc1)c1ccc2n[se]nc2c1	>	100
Cc1cc(C)c2c(=O)cc(-c3cccc4ccccc34)[nH]c2n1	=	23.8
C=C(C)C1CCC(C(=O)O)CC1 (stereo not given)	>	100
CC(C)NC(=O)OCc1c2c(n(C)c1COC(=O)NC(C)C)-c1cc(Cl)c(Cl)cc1CC2	=	40.6
O=C(O)CO[C@@]12C#C/C=C\C#C[C@@H]3N(C(=O)Oc4ccccc4)c4ccccc4[C@]14O[C@@]34CCC2	=	54.8

----------
tested on: EKVX NSCLC; experiment: NCI tumour cell line growth inhibition, 48 h; in the data active = GI50 below about 0.43 µM; inactive = the rest
Outcomes: y (active), n (inactive)

MOLECULE	CAT
CN(C)C/C=C/C(=O)Nc1ccc(C(=O)N[C@@]2(C)CCC[C@@H](Nc3ncc(Cl)c(-c4c[nH]c5ccccc45)n3)C2)nc1	y
O=C(Oc1ccc[nH]c1=O)c1cc([N+](=O)[O-])cc([N+](=O)[O-])c1	n
CCOc1cc(C(C)(C)C)ccc1C1=N[C@H](c2ccc(Cl)cc2)[C@H](c2ccc(Cl)cc2)N1C(=O)N1CCN(CC#Cc2cccc3c2CN([C@@H]2CCC(=O)NC2=O)C3=O)CC1	n
C[C@]12CCc3sc(Nc4ccc(OC(F)(F)F)cc4)nc3C1=CC[C@@H]1[C@@H]2CC[C@]2(C)C(=O)CC[C@@H]12	n
C#CC1(O)C(COP(=O)(O)OCC(COP(=O)(O)OCC2OC(n3cc(F)c(=O)[nH]c3=O)CC2O)OCCCCCCCCCCCCCCCCCC)OC(n2ccc(N)nc2=O)C1O (configuration not stated)	n
N/N=C\c1c2ccccc2c(=O)n2c1oc1ccccc12	n
CC1(C)N=C(N)N=C(N)N1c1ccc(CCC(=O)Nc2ccc(S(=O)(=O)F)cc2)c(Cl)c1	n
C=CC(=O)N1CCC(Oc2cc3c(Nc4ccc(Cl)c(Cl)c4F)ncnc3cc2OC)CC1	y
Cc1cc(Cl)ccc1OCC(=O)Nc1nc2c(Cl)cccc2s1	n
CS(=O)(=O)CCNCc1coc(-c2ccc3ncnc(Nc4ccc(OCc5ccccc5)cc4)c3c2)c1	n
O=c1[nH]c2ccccc2cc1-c1nc2ccc(Cl)cc2[nH]1	n
COc1cccc2c1C(=N)c1c(O)c3c(c(O)c1C2=O)C[C@@](O)(C(C)=O)C[C@@H]3O[C@H]1C[C@H](N)[C@H](O)[C@H](C)O1	n

----------
system: K-562 leukemia; experiment: NCI tumour cell line growth inhibition, 48 h

COMPOUND	TGI
N[C@H](C(=O)O)[C@@H]1CC(Cl)=NO1	> 944 µM
Cc1cn(-c2cc(NC(=O)c3cccc(C#Cc4cccc5[nH]nc(N)c45)c3)cc(C(F)(F)F)c2)cn1	> 100 µM
Cc1cccc(Cl)c1NCC(O)CN1CCN(C)CC1 (stereo not given)	> 100 µM
C=CC(=O)N1CCC(Oc2cc3c(Nc4ccc(Cl)c(Cl)c4F)ncnc3cc2OC)CC1	> 100 µM
Nc1ncc(-c2cnn(C3CCNCC3)c2)cc1-c1nc2cc(Cl)ccc2o1	0.444 µM
CSc1c(C(=O)Nc2ccccc2)c(N)n(N)c(=O)c1C#N	> 100 µM
COc1cc2c(cc1O)c(O)cc1c3cc(OC)c(OC)cc3c[n+](C)c21	> 80.5 µM
CCOC(=O)Nc1cc2c(c(N)n1)N=C(c1ccc(OC)cc1)CN2	1.32 µM
CCOC(=O)CCC(NC(=O)c1ccc(Nc2nc3ccc(C(F)(F)F)cc3nc2-c2ccccc2)cc1)C(=O)OCC (stereo not given)	> 100 µM
CC(C)(C)c1cc([N+](=O)[O-])cc([N+](=O)[O-])c1O	> 10 µM

----------
tested on: SNB-19 CNS; assay: NCI tumour cell line growth inhibition, 48 h; in the data active means GI50 below about 0.43 µM; inactive means the rest
Outcomes: true (active), false (inactive)

COMPOUND	CAT
CCOC(=O)[CH-]C(=O)C12CC3CC(CC(C3)C1)C2.CCOC(=O)[CH-]C(=O)C12CC3CC(CC(C3)C1)C2.CC[O-].CC[O-].[Ti+4]	false
O=C1NC(=S)S/C1=C/c1ccc2c(c1)OCO2	false
C[C@]12CCc3sc(Nc4ccc(OC(F)(F)F)cc4)nc3C1=CC[C@@H]1[C@@H]2CC[C@]2(C)C(=O)CC[C@@H]12	false
C#CC1(O)C(COP(=O)(O)OCC(COP(=O)(O)OCC2OC(n3cc(F)c(=O)[nH]c3=O)CC2O)OCCCCCCCCCCCCCCCCCC)OC(n2ccc(N)nc2=O)C1O (centres undefined)	true

----------
tested on: UACC-257 melanoma; assay: NCI tumour cell line growth inhibition, 48 h

MOLECULE	ASSAY_TARGET	TGI
O=C(NN1C(=O)C(Cl)C1c1ccc(Cl)cc1)c1c(Cl)c(Cl)c(Cl)c(Cl)c1-c1nc2ccccc2[nH]1 (stereo not given)	UACC-257 melanoma	> 100 µM
COc1c(=O)cc2cc[nH]c3cc[nH]c1c23	UACC-257 melanoma	> 100 µM
O=C(NC(=O)c1c(F)cccc1F)Nc1cccc(Oc2ncc(Cl)cn2)c1	UACC-257 melanoma	> 100 µM
COC1(OC)N=C(N)C2(C#N)C(c3ccccc3)NC3=C(CCC3)C12C#N (stereo not given)	UACC-257 melanoma	> 100 µM
NCCCNCCS	UACC-257 melanoma	> 100 µM
CN(c1ccc(NC(=O)Nc2c(Cl)cccc2Cl)cc1)c1ccnc(Nc2cccc(CS(C)(=O)=O)c2)n1	UACC-257 melanoma	6.55 µM
COc1cccc2c1C(=N)c1c(O)c3c(c(O)c1C2=O)C[C@@](O)(C(C)=O)C[C@@H]3O[C@H]1C[C@H](N)[C@H](O)[C@H](C)O1	UACC-257 melanoma	8.99 µM
CC(=O)OCC1OC(N2C(C)=C(C(C)=O)C(c3ccc(Cl)cc3)C(C#N)=C2S)C(OC(C)=O)C(OC(C)=O)C1OC(C)=O (stereo not given)	UACC-257 melanoma	> 100 µM
Cc1cccc(Cl)c1NCC(O)CN1CCN(C)CC1 (stereo not given)	UACC-257 melanoma	> 100 µM
CCN(CC)CCNC(Cc1ccccc1)c1ccc(OCc2ccccc2)cc1 (stereo not given)	UACC-257 melanoma	4.85 µM
O=S(=O)(O)c1ccc(N=Nc2ccc3c(S(=O)(=O)O)cccc3c2O)c2ccccc12	UACC-257 melanoma	> 100 µM
Cc1cc(C)nc(NS(=O)(=O)c2ccc(Nc3c4ccccc4nc4ccc(C(=O)Nc5ccc(S(N)(=O)=O)cc5)cc34)cc2)n1	UACC-257 melanoma	> 100 µM
Nc1ccccc1CCN1CCN(CCCc2ccccc2)CC1	UACC-257 melanoma	> 100 µM
N#Cc1c(-c2ccc(Cl)cc2)c2c(n(C3OC(CO)C(O)C(O)C3O)c1=S)CCCC2 (stereo not given)	UACC-257 melanoma	> 100 µM
O=C(CSc1nnc(-c2ccccn2)s1)N/N=C/c1ccccc1	UACC-257 melanoma	> 100 µM
CCOc1cccc(/C=N/NC(=O)c2cccc(Nc3ccnc(C(F)(F)F)c3)c2)c1O	UACC-257 melanoma	24 µM
COc1ccc(CC2COc3cc(OC)cc(OC)c3C2=O)cc1 (stereo not given)	UACC-257 melanoma	> 100 µM
COc1cc2c(cc1OCCCCCCCCCCN1C(=O)c3cccc4cccc(c34)C1=O)N=C[C@@H]1CCCN1C2=O	UACC-257 melanoma	37.3 µM
COC1OC(CS(=O)(=O)O)C(O)C(O)C1O (stereo not given)	UACC-257 melanoma	> 100 µM
CC(=O)SCCC(NC(=S)Nc1ccccc1)P(=O)(Oc1ccccc1)Oc1ccccc1 (stereo not given)	UACC-257 melanoma	> 100 µM
